As shown below, each of these molecules has a reported IC50 value.
# ASSAYED TARGET: Neuronal acetylcholine receptor subunit alpha-7 (Homo sapiens, UniProt P36544)
# Sequence (P36544 whole entry): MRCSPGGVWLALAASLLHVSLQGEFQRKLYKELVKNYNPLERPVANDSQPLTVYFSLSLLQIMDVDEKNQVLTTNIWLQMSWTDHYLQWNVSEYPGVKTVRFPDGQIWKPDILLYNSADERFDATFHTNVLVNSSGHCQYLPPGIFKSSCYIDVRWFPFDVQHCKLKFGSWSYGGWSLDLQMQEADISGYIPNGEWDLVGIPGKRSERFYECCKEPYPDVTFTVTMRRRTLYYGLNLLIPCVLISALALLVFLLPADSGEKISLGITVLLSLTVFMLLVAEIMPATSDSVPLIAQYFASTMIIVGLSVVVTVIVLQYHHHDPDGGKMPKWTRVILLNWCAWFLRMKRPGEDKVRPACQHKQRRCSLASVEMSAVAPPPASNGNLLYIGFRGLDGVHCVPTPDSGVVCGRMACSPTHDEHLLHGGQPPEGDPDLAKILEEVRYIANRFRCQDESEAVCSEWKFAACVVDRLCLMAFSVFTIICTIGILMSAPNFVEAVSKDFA
# MEASUREMENT DESCRIPTION: Antagonist activity at human alpha-7 nAChR in tsA201 cells coexpressed with Ric3 by FMP assay
# Format: functional, cell-based
# TEST CONDITIONS: read-out: pIC50 (converted)
Give the value in nM but do not write nM after it.

{"columns": ["MOLECULE", "IC50 / nM"],
 "data": [
  ["C1=CC([N+]23CC[C@@H]4[C@@H]5[C@@H]6[C@@H](OCC=C(C2)[C@@H]6C[C@@H]43)N2c3ccccc3[C@@]34CC[N+]6(C7C=CCCC7)CC7=CCO[C@H]([C@@H]([C@H]23)[C@H]7C[C@@H]46)N5c2ccccc2)CCC1.[Br-].[Br-] (some centres undefined)", 3020]
]}

For the molecule CCN1C[C@]2(COC(=O)c3ccccc3N3C(=O)C[C@H](C)C3=O)CC[C@H](OC)[C@@]34[C@@H]5C[C@H]6[C@H](OC)[C@@H]5[C@](O)(C[C@@H]6OC)[C@](O)([C@@H](OC)[C@H]23)[C@@H]14 , give its reported IC50. 8.32

For the molecule CC(=O)OCC[N+]12CC[C@@H]3[C@@H]4[C@@H]5[C@@H](OCC=C(C1)[C@@H]5C[C@@H]32)N1c2ccccc2[C@@]23CC[N+]5(CCOC(C)=O)CC6=CCO[C@H]([C@@H]([C@H]12)[C@H]6C[C@@H]35)N4c1ccccc1.[Br-].[Br-] (some centres undefined) , give its reported IC50. 1620

For the molecule C=CC[N+](C)(C)Cc1c2n(c3ccccc13)Cc1c(C[N+](C)(C)CC=C)c3ccccc3n1C2.[Br-].[Br-] , give its reported IC50. 100000

----------
# MEASUREMENT DESCRIPTION: Antagonist activity at human alpha7 nAChR W149Y mutant co-expressed with human Ric3 in tsA201 cells by FMP assay
# Type: functional, cell-based
# TEST CONDITIONS: read-out: EC50
READOUT NAME: EC50 (µM)
Give the value in µM but do not write µM after it.

For the molecule CC(=O)OCC[N+](C)(C)C , give its reported EC50. 1500

----------
As shown below, each of these molecules has a reported pKi value.
# ASSAYED TARGET: Neuronal acetylcholine receptor subunit alpha-7 (Homo sapiens)
# MEASUREMENT DESCRIPTION: Displacement of [3H]methyllycaconitine from human alpha-7 in tsA201 cells coexpressed with 5HT3A receptor
# Assay type: cell-based
# TEST CONDITIONS: read-out: Ki
Entry type: numeric. Quantity: pKi, the -log10 of concentration in molar units.

{"columns": ["MOLECULE", "pKi"],
 "data": [
  ["C1=C2C[N+]3(Cc4ccc5ccccc5c4)CC[C@@H]4[C@@H]5[C@H]([C@@H](OC1)N1c6ccccc6[C@@]67CC[N+]8(Cc9ccc%10ccccc%10c9)CC9=CCO[C@H]([C@@H]([C@H]16)[C@H]9C[C@@H]78)N5c1ccccc1)[C@H]2C[C@@H]43 (some centres not stated)", 6.44]
]}

Write down the reported pKi (system: Neuronal acetylcholine receptor subunit alpha-7 (Homo sapiens)) of OC/C=C1/CN2CC[C@H]3[C@@H]2C[C@@H]1/C1=C/N2c4ccccc4[C@@]45CCN6CC7=CCO[C@H]([C@@H]([C@H]24)[C@H]7C[C@H]65)N(c2ccccc2)[C@@H]13 5.92

Write down the reported pKi (system: Neuronal acetylcholine receptor subunit alpha-7 (Homo sapiens)) of CC(=O)OCC[N+]12CC[C@@H]3[C@@H]4[C@@H]5[C@@H](OCC=C(C1)[C@@H]5C[C@@H]32)N1c2ccccc2[C@@]23CC[N+]5(CCOC(C)=O)CC6=CCO[C@H]([C@@H]([C@H]12)[C@H]6C[C@@H]35)N4c1ccccc1.[Br-].[Br-] (some centres not stated) 6.55

Write down the reported pKi (system: Neuronal acetylcholine receptor subunit alpha-7 (Homo sapiens)) of C[N+]12CCC34c5ccccc5N5/C=C6/[C@H]7C[C@H]8[C@@]9(CC[N+]8(C)C/C7=C/CO)c7ccccc7N(/C=C(/[C@@H](C[C@@H]31)/C(=C\CO)C2)[C@H]54)[C@@H]69.[Cl-].[Cl-] (some centres not stated) 5.80

Write down the reported pKi (system: Neuronal acetylcholine receptor subunit alpha-7 (Homo sapiens)) of C[N+]12CC[C@@H]3[C@@H]4[C@@H]5[C@@H](OCC=C(C1)[C@@H]5C[C@@H]32)N1c2ccccc2[C@@]23CC[N+]5(C)CC6=CCO[C@H]([C@@H]([C@H]12)[C@H]6C[C@@H]35)N4c1ccccc1.[I-].[I-] (some centres not stated) 6.52

Write down the reported pKi (system: Neuronal acetylcholine receptor subunit alpha-7 (Homo sapiens)) of C/C=C/C[N+]12CC[C@@H]3[C@@H]4[C@@H]5[C@@H](OCC=C(C1)[C@@H]5C[C@@H]32)N1c2ccccc2[C@@]23CC[N+]5(C/C=C/C)CC6=CCO[C@H]([C@@H]([C@H]12)[C@H]6C[C@@H]35)N4c1ccccc1.[Br-].[Br-] (some centres not stated) 6.64

Write down the reported pKi (system: Neuronal acetylcholine receptor subunit alpha-7 (Homo sapiens)) of OC/C=C1/C[N+]2(C3C=CCCC3)CC[C@@H]3[C@@H]4/C(=C\N5c6ccccc6[C@@]67CC[N+]8(C9C=CCCC9)CC9=CCO[C@H]([C@@H]([C@H]56)[C@H]9C[C@@H]78)N4c4ccccc4)[C@H]1C[C@@H]32.[Br-].[Br-] (some centres not stated) 6.44
